# Test system: HCT-116
# assay_method_text: Cellular proliferation assay (Alamar blue), HCT-116
# Assay type: cell-based
# condition_context: Homo sapiens; HCT-116 cells; 10% FCS; 72 h with compound; Alamar blue 4 h; read-out: pIC50 HCT-116 (converted)
Consider the following molecules and their measured IC50 readings.

Reference set, count: 6
molecule	observed_value
CN1CCCN(C)C(=O)COc2cc(ccc2OCCCN2CCOCC2)Nc2ncnc3[nH]cc(c23)C1 [Compound 137]	1260 nM
COCCCOc1ccc2cc1OCC(=O)N(C)CCCN(C)Cc1c[nH]c3ncnc(c13)N2 [Compound 132]	1580 nM
CN1CCCN(C)C(=O)COc2cc(ccc2Cl)Nc2ncnc3c2c(cn3C)C1 [Compound 146]	> 10000 nM
COCCN1CC(=O)N(C)CCCc2c[nH]c3ncnc(c23)Nc2ccc(OC)c(c2)C1 [Compound 36]	> 10000 nM
CN1CCN(C)C(=O)CCCCOc2cc(ccc2N2CCOCC2)Nc2ncnc3[nH]cc(c23)C1 [Compound 48]	> 10000 nM
COc1cc2cc(c1OC)CN(C)CC(=O)N(C)CCCc1c[nH]c3ncnc(c13)N2 [Compound 72]	> 10000 nM

// fetch IC50 for COc1ccc2cc1OCCCC(=O)N(C)CCCN(C)Cc1c[nH]c3ncnc(c13)N2 [Compound 17] ; system: HCT-116
> 10000 nM

With HCT-116 as the test system, provide measured IC50 for this molecule: CN1CCN(c2ccc3cc2OCC(=O)N(C)CCCN(C)Cc2c[nH]c4ncnc(c24)N3)CC1 [Compound 84]
1000 nM
